Target: Torsin-1A-interacting protein 2 (Homo sapiens) (UniProt Q8NFQ8)
Sequence (Q8NFQ8 whole entry, looked up): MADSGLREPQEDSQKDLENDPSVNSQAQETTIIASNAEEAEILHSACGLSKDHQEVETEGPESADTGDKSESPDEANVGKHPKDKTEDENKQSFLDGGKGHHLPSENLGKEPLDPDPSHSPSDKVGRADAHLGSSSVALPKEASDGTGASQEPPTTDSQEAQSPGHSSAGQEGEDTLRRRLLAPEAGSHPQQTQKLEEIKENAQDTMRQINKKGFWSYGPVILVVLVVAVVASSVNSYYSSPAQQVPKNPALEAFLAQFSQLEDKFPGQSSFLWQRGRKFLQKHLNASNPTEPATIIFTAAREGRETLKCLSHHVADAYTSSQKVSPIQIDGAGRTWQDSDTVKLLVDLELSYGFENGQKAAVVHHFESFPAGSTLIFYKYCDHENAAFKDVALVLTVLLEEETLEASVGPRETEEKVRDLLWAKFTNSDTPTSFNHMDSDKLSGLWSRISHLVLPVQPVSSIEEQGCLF
Experiment: LULL1 binders on small-molecule microarray, primary screen, cell lysate, human LULL1 lysate, 635/667 nm fluorescence (AID 1092);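 note: probe is lysate of COS7 cells overexpressing human LULL1; score merges per-feature 667 nm fluorescence with signal-to-noise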
Settings: hLULL1 lysate binding, 635 nm fluorescence, higher = more signal
Rule: composite z-score of 0.8 or more gives fulfilled; anything lower gives not fulfilled.

Look over these answered cases.
1. CC(C)[C@H](NC(=O)OC(C)(C)C)[C@@H](O)CC(=O)C(C)(C)C	not fulfilled
2. COc1ccc(O[C@H]2C=C[C@@H](C#Cc3ccccc3)O[C@@H]2CO)cc1	fulfilled
3. Cc1ccc(S(=O)(=O)N[C@@H]2COC(=O)CC=C[C@@H](C)[C@H](NS(=O)(=O)c3ccc(C)cc3)COC(=O)[C@H](C)NC(=O)CC=C[C@H]2C)cc1	not fulfilled
4. CCOC(=O)NN=C1C[C@@H](O)[C@@H](O)[C@@H]2[C@@H]3C(=O)N(CC)C(=O)[C@@H]3CC[C@H]12	not fulfilled
5. COC(=O)C1=C(C)N(Cc2ccccc2)C2=C3C(=O)OCC[C@@H]3[C@@](O)(C(=O)OC)C(=O)N2[C@@H]1c1ccccc1	not fulfilled

Does composite z-score meet or surpass 0.8 for COC(=O)[C@H](C)NC(=O)CCC1CC(OC(=O)NCCc2ccc(F)cc2)CC2(CCCC(COC(=O)NCCOc3ccccc3)O2)O1 (stereo partly specified) ? fulfilled

Does composite z-score meet or surpass 0.8 for COC(=O)[C@H](C)NC(=O)CCC1CC(OC(=O)NCc2cccc3ccccc23)CC2(CCCC(COC(=O)NCc3cccc(C(F)(F)F)c3)O2)O1 (stereo partly specified) ? fulfilled

Does composite z-score meet or surpass 0.8 for "COC(=O)[C@@H]1CC[C@H](C)[C@@H](c2ccc(Br)cc2)N1C[C@@H](O)CN=[N+]=[N-]" ? not fulfilled

Does composite z-score meet or surpass 0.8 for "CC(=O)OC[C@H]1O[C@H](CC=NO[C@@H](C)c2cn([C@H](CO)Cc3ccccc3)nn2)C=C[C@@H]1OC(C)=O" ? fulfilled

Does composite z-score meet or surpass 0.8 for "CC(C)CON=C1C[C@@H](O)[C@@H](O)[C@@H]2[C@@H]3C(=O)N(C(C)(C)C)C(=O)[C@@H]3CC[C@@H]12" ? not fulfilled

Does composite z-score meet or surpass 0.8 for "CC(C)C(=O)N[C@H]1CCCN1C(=O)C=Cc1ccccc1" ? not fulfilled

Does composite z-score meet or surpass 0.8 for CC(CCC(=O)OC[C@H]1O[C@H](C#Cc2ccccc2)C=C[C@@H]1Oc1ccc(C)cc1)=NOC(C)CN1CCCc2nc(C)c(C)cc21 (stereo partly specified) ? fulfilled

Does composite z-score meet or surpass 0.8 for COC(=O)[C@H](C)NC(=O)CCC1CC(OC(=O)NCc2cccc3ccccc23)CC2(CCCC(COC(=O)NCc3ccccc3)O2)O1 (stereo partly specified) ? fulfilled

====

Target: Streptavidin (Streptomyces avidinii) (UniProt P22629)
Sequence (P22629 whole entry, looked up): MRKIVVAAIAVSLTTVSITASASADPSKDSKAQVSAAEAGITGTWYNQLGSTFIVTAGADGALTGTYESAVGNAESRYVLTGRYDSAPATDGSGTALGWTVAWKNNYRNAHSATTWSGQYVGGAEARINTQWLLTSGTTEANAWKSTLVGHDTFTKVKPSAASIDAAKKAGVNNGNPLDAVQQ
Experiment: streptavidin binders on small-molecule microarray, primary screen, artefact control for SMM compound annotation, biophysical, 635/667 nm fluorescence (AID 1147);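 note: signal reflects streptavidin binding to arrayed compounds as a control protein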
Conditions: streptavidin binding, higher = more signal
Item-by-item account of composite z-score

1) CCOC(=O)NN=C1C[C@@H](O)[C@@H](O)[C@@H]2[C@@H]3C(=O)N(CC)C(=O)[C@@H]3CC[C@H]12	0.0571

Complete the entry with composite z-score for "CN1CCc2nc(-c3ccccc3)c(-c3ccccc3)cc2C1" 0.0666

====

Test: fission yeast growth modulation, primary screen, strain 972, OD600, 24 h, no modulator (AID 1090);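 note: basal condition with compound alone and no growth modifier present; test concentration not given here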
Details: S. pombe 972 growth, higher = more signal, called active from +8 up or from −8 down
Item-by-item account of z-score
Lab note: jot down the number only; don't add units.

1. CC(CCC(=O)OC[C@H]1O[C@H](C#Cc2ccccc2)C=C[C@@H]1Oc1ccc(C)cc1)=NOC[C@@H](C)[C@H](OCc1ccccc1)C(C)C	0.484
2. O=C1[C@H]2[C@H]3[C@H](O)[C@H](O)CC(=NOCc4ccccc4)[C@H]3CC[C@H]2C(=O)N1C1CCCCC1	-0.355
3. CC(C)CON=C1C[C@@H](O)[C@@H](O)[C@@H]2[C@@H]3C(=O)N(C(C)(C)C)C(=O)[C@@H]3CC[C@@H]12	-0.182

As a next step, examine the molecule that follows.
Complete the entry with z-score for "O=C1[C@H]2CCn3c(=O)n(-c4ccccc4)c(=O)n3[C@H]2[C@H](O)[C@@H]2O[C@H]12" -0.41

====

Biological target: Dihydroorotate dehydrogenase (quinone), mitochondrial (Plasmodium falciparum (isolate 3D7)) (UniProt Q08210)
Sequence (Q08210 whole entry, looked up): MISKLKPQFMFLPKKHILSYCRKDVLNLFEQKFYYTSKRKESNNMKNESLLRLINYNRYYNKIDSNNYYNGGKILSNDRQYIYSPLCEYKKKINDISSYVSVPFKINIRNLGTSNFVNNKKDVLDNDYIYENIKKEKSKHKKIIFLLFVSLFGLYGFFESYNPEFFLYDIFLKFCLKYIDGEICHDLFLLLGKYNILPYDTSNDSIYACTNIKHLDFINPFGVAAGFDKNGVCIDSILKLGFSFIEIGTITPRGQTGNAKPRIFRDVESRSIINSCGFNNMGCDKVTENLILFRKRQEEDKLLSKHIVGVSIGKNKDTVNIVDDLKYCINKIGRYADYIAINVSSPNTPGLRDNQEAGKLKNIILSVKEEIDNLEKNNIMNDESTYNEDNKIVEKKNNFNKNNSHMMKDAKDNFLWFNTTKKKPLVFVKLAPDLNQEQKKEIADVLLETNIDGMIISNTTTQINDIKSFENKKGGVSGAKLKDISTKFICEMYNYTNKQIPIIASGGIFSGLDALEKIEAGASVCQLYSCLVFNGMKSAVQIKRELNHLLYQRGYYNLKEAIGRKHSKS
Assay: PfDHODH enzyme inhibitors, primary screen, biochemical, C-terminal His tag, absorbance 600 nm (AID 1175);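 note: recombinant parasite enzyme with a five histidine tag at its C terminus; test concentration not given here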
Conditions: DCIP absorbance 600 nm, higher = more signal, called active from +8 up or from −8 down
The source made the active and inactive calls.
Item-by-item account of composite z-score

Worked cases, composite z-score given:
1) CC[C@@H](c1ccccc1)n1c(=O)n2n(c1=O)[C@H]1[C@H](O)[C@@H]3O[C@@H]3C(=NOCc3ccccc3)[C@H]1CC2	0.149 (inactive)
2) COC(=O)[C@H](C)NC(=O)CCC1CC(OC(=O)NCCc2ccc(F)cc2)CC2(CCCC(COC(=O)NCCc3ccccc3OC)O2)O1 (some centres undefined)	0.098 (inactive)
3) CON=C(C)CCN1CCc2nc(-c3ccccc3)c(-c3ccccc3)cc2C1	-0.467 (inactive)
4) CC(=O)OC[C@H]1O[C@@H](ON=C2[C@H]3CCn4c(=O)n(-c5ccccc5)c(=O)n4[C@H]3[C@H](O)[C@@H]3O[C@H]23)[C@H](OC(C)=O)[C@@H](OC(C)=O)[C@@H]1OC(C)=O	-1.44 (inactive)
5) CC(C)CON=C1C[C@@H](O)[C@@H](O)[C@@H]2[C@@H]3C(=O)N(c4ccc(F)cc4F)C(=O)[C@@H]3CC[C@@H]12	-2.1 (inactive)

Complete the entry with composite z-score for "O=C(NN=C1C[C@@H](O)[C@@H](O)[C@@H]2[C@@H]3C(=O)N(Cc4ccccc4)C(=O)[C@@H]3CC[C@H]12)OCc1ccccc1" -0.993 (inactive)

Complete the entry with composite z-score for CCOC(=O)[C@H](CC(C)C)NC(=O)CCC1CC(OC(=O)NCCc2ccc(F)cc2)CC2(CCCC(COC(=O)NCc3cccc(C(F)(F)F)c3)O2)O1 (some centres undefined) 0.324 (inactive)

Complete the entry with composite z-score for "C[C@H]1CC[C@H]2C(=O)O[C@H](CO)CN2[C@@H]1c1ccc(Br)cc1" 0.586 (inactive)

Complete the entry with composite z-score for COC(=O)[C@H](C)NC(=O)CCC1CC(OC(=O)NCc2ccc3c(c2)OCO3)CC2(CCCC(COC(=O)NCCCN3CCCC3=O)O2)O1 (some centres undefined) 0.184 (inactive)

Complete the entry with composite z-score for "CON=C[C@@H](OC)[C@H](C)C=CCC(=O)OC" -0.241 (inactive)

Complete the entry with composite z-score for "C[C@H]1CC[C@H]2C(=O)N[C@H](Cc3ccccc3)C(=O)N2[C@@H]1c1ccccc1" 0.868 (inactive)

Complete the entry with composite z-score for "O=C(NN=C1C[C@@H](O)[C@@H](O)[C@@H]2[C@@H]3C(=O)N(Cc4ccc5c(c4)OCO5)C(=O)[C@@H]3CC[C@@H]12)OCc1ccccc1" -2.65 (inactive)

Complete the entry with composite z-score for "O=C1[C@H]2[C@H]3[C@H](O)[C@H](O)CC(=NO[C@@H]4O[C@H](CO)[C@@H](O)[C@H](O)[C@H]4O)[C@@H]3CC[C@H]2C(=O)N1c1cccc(Oc2ccccc2)c1" -0.111 (inactive)

Complete the entry with composite z-score for CCOC(=O)[C@H](Cc1ccccc1)NC(=O)CCC1CC(OC(=O)NCCc2ccc(F)cc2)CC2(CCCC(COC(=O)NCc3cccc(C(F)(F)F)c3)O2)O1 (some centres undefined) -0.276 (inactive)

Complete the entry with composite z-score for "COC(=O)CC=C[C@@H](C)[C@@H](C=NOC[C@@H](O)COCc1ccco1)NS(=O)(=O)c1ccc(C)cc1" 0.444 (inactive)

Complete the entry with composite z-score for COC(=O)[C@H](C)NC(=O)CCC1CC(OC(=O)NCc2ccc3c(c2)OCO3)CC2(CCCC(COC(=O)NCc3ccccc3)O2)O1 (some centres undefined) -0.504 (inactive)

====

System: Neuregulin-1 EGF-like domain
Assay: binders of neuregulin-1 EGF-like domain, primary screen, biochemical, small-molecule microarray, 635 nm fluorescence (AID 1081);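 note: binding of the protein to compounds printed on small-molecule microarray slides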
Settings: small-molecule microarray binding, higher = more signal
Rule: composite z-score of 0.6 or more gives Criterion met; anything lower gives Criterion not met.

Look over these answered cases.
1) C[C@@H](c1ccccc1)N1C(=O)[C@H]2[C@H]3[C@H](O)[C@H](O)CC(=NOCc4ccccc4)[C@@H]3CC[C@H]2C1=O	Criterion not met
2) CCOC(=O)CCN1C(=O)[C@H]2[C@H]3[C@H](O)[C@H](O)CC(=NO[C@@H]4O[C@H](CO)[C@@H](O)[C@H](O)[C@H]4O)[C@H]3CC[C@H]2C1=O	Criterion not met
3) O=C(NCCC[N+]1=CC=NC1c1ccccc1)N1CCCc2nc(-c3ccc(Br)cc3)ccc21 (stereo not drawn)	Criterion met
4) COC(=O)[C@H](C)NC(=O)CCC1CC(OC(=O)NCc2cccc3ccccc23)CC2(CCCC(COC(=O)NCCc3ccccc3OC)O2)O1 (stereo partly drawn)	Criterion met
5) CCOC(=O)[C@H](Cc1ccccc1)NC(=O)CCC1CC(OC(=O)NCCc2ccc(F)cc2)CC2(CCCC(COC(=O)NCCOc3ccccc3)O2)O1 (stereo partly drawn)	Criterion met

Does composite z-score meet or surpass 0.6 for "CO[C@H]1C[C@@H]2C[C@H](O)CC(CC(=O)O[C@@H](C=CCC(C)C)C[C@@H]3CC[C@H](C)[C@@H](C1)O3)O2" ? Criterion met

Does composite z-score meet or surpass 0.6 for C=CC[C@@H]1C=CC(ON=C(C)C)[C@@H](CO)O1 (stereo partly drawn) ? Criterion not met

Does composite z-score meet or surpass 0.6 for "C[C@H]1CC[C@@H](C(=O)O)N[C@@H]1c1cccc(N2CCCC2=O)c1" ? Criterion not met
